Catalogue of sequences with associated PBM E-score
- target.system: Ecm22 (UniProt Q05958)
- Sequence: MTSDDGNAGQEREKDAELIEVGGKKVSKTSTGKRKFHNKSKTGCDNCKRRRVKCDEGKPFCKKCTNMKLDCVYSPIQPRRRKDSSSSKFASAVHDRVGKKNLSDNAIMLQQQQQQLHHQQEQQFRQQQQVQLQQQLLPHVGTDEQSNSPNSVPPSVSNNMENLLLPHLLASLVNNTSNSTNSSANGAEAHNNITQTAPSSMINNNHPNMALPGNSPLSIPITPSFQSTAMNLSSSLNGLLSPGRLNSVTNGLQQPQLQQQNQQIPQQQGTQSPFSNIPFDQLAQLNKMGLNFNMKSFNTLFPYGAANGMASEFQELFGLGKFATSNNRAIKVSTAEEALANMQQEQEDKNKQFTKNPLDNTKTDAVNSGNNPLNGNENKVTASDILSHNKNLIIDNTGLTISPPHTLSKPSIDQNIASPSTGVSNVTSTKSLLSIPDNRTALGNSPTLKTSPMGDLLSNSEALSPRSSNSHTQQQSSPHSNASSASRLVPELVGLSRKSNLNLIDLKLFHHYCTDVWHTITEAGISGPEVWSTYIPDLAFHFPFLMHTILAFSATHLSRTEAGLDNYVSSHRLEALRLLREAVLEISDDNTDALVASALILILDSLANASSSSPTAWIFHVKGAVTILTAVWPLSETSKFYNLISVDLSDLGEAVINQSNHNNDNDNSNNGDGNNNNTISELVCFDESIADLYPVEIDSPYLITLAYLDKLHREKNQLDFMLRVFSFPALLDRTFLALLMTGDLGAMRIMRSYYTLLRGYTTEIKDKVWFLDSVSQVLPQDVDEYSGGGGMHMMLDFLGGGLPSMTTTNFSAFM
- test.summary: PBM E-score (8-mer binding enrichment) (E-score (-0.5 to 0.5)); higher = stronger / more preferred TF binding
- condition.set: protein concentration: 200 nM; construct: GST-full length
Whole data set: some 33,000 sequences, median “E-score (-0.5 to 0.5)” near -0.041, cut for the highest 2% near 0.37. The sample holds the highest values, similar sequences and a random draw of the others, so the mix is not that of the screen.
Enter the number alone.

{"columns": ["biopolymer.sequence", "target.system", "PBM E-score"],
 "data": [
  ["ATTAACGA", "Ecm22 (UniProt Q05958)", 0.402]
]}

Entry GAGTCGTA , PBM E-score reported as 0.43

Entry GTTAACTA , PBM E-score reported as 0.106

Entry AAAATACC , PBM E-score reported as 0.0602

Entry AAGTCGTC , PBM E-score reported as 0.139

Entry ATATTTAA , PBM E-score reported as 0.0866

Entry AAAATACG , PBM E-score reported as 0.372

Entry CCGTACGC , PBM E-score reported as 0.324

Entry CAGTCGTA , PBM E-score reported as 0.418

Entry CATATACG , PBM E-score reported as 0.445

Entry AAGTCGTA , PBM E-score reported as 0.433

Entry AATATACG , PBM E-score reported as 0.461

Entry CCAAACGA , PBM E-score reported as 0.437

Entry CCGTACGA , PBM E-score reported as 0.445

Entry CATATACC , PBM E-score reported as -0.0901
